# System Under Test: kinase domain of ULK1 (Homo sapiens, UniProt O75385)
# Sequence (O75385 1-283 limits assumed): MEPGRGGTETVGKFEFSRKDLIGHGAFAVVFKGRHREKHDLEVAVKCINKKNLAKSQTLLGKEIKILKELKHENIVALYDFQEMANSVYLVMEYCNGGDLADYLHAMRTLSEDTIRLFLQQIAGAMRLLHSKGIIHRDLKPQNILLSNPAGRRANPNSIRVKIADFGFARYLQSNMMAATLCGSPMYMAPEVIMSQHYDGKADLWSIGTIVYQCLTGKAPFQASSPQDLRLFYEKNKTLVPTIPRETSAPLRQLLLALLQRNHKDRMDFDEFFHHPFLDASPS
# Assay Conditions: binder
We label by threshold. Values of ULK1 PTS (ºC) strictly beneath 7 °C are fulfilled. Values of 7 °C and up are not fulfilled.

INSERT INTO results (smiles_representation, label_value) VALUES
  ('CNC(=O)c1ccccc1Nc1nc(Nc2ccc3[nH]ccc3c2)ncc1Cl', 'fulfilled');

Request: Please determine if `CNC(=O)c1ccccc1Nc1ccnc(Nc2cc(OC)c(OC)c(OC)c2)n1` is below 7 °C in terms of ULK1 PTS (ºC).
Response: fulfilled

Request: Say whether its ULK1 PTS (ºC) is strictly beneath 7 °C. Entry: `CNC(=O)c1ccccc1Nc1nc(Nc2cccc(OC)c2)ncc1Cl`
Response: fulfilled

Request: Please determine if `CNC(=O)c1ccccc1Nc1nc(Nc2ccc3[nH]ccc3c2)ncc1Br` is below 7 °C in terms of ULK1 PTS (ºC).
Response: not fulfilled

Request: Confirm or reject: ULK1 PTS (ºC) of `CNC(=O)c1ccccc1Nc1nc(Nc2ccc3c(c2)CCC(=O)N3)ncc1C(F)(F)F` lies strictly below 7 °C
Response: not fulfilled

Request: is_below(ULK1 PTS (ºC), 7 °C) for `CNC(=O)c1ccccc1Nc1nc(Nc2cc(OC)ccc2C)ncc1Cl` ?
Response: fulfilled

This collection of values is drawn from paper doi:10.1101/2025.10.14.682402v1.
